system: L1210 leukemia ip in BDF1 mice, survival T/C; experiment: NCI In Vivo Anticancer Drug Screen. Data for tumor model L1210 Leukemia (intraperitoneal) in B6D2F1 (BDF1) mice; conditions: endpoint: mean survival time; dose: 150.0 mg/kg/injection; schedule: Q01DX001 (ip); vehicle: saline; higher = longer survival
Toxic doses and inconclusive results are not listed.
property: T/C

*Q* Report T/C for CCN(CC)CCCC(C)Nc1cc(N)nc2nc(-c3ccccc3)cnc12 (configuration not stated) (tested in a mixture with another compound) please.
*A* 97 % of control

* * *

system: L1210 leukemia ip in BDF1 mice, survival T/C; assay: NCI In Vivo Anticancer Drug Screen. Data for tumor model L1210 Leukemia (intraperitoneal) in B6D2F1 (BDF1) mice; details: endpoint: mean survival time; dose: 100.0 mg/kg/injection; schedule: Q01DX009 (ip); vehicle: saline with Tween-80; higher = longer survival
Toxic doses and inconclusive results are not listed.
Quick reference for T/C among some compounds

// below: answered compounds
1) CC1=C2CC(C(C)(C)O)CCC2(C)CC/C1=N\NC(N)=S (centres undefined); 98 % of control
2) COC(=O)NC(C)(NC(=O)OC)C(=O)OC; 104 % of control
3) NC(=O)C[CH2][Sn]([c]1ccccc1)([c]1ccccc1)[c]1ccccc1; 112 % of control
4) Cc1ccc(S(=O)(=O)N/N=C/c2ccccc2C)cc1; 105 % of control
5) CC(C)C1CCC2=C(CCC3C(C)(C(=O)O)CCCC23C)C1 (centres undefined); 89 % of control
6) COC(=O)C1(C(=O)OC)CCC=CC1=O; 107 % of control

*Q* Report T/C for COC(=O)C1(C)CCCC2(C)C1CCC13OCC(CC21)C(=C(C)C)C3OC(C)=O (centres undefined) please.
*A* 93 % of control

*Q* Report T/C for Cc1nc(OCc2ccccc2)c(C(=O)OCc2ccccc2)nc1C please.
*A* 103 % of control

*Q* Report T/C for C=CCC(CC)C(=O)Cl (centres undefined) please.
*A* 104 % of control

*Q* Report T/C for CC(SC(C)c1ccccc1)c1ccccc1 (centres undefined) please.
*A* 93 % of control

*Q* Report T/C for Cc1cccc(NC=O)c1 please.
*A* 100 % of control

* * *

test system: L1210 leukemia ip in BDF1 mice, survival T/C; experiment: NCI In Vivo Anticancer Drug Screen. Data for tumor model L1210 Leukemia (intraperitoneal) in B6D2F1 (BDF1) mice; conditions: endpoint: mean survival time; dose: 100.0 mg/kg/injection; schedule: Q04DX003 (ip); vehicle: saline; higher = longer survival
Toxic doses and inconclusive results are not listed.
property: T/C

// below: answered compounds
1. COc1cccc(/C=N\O)c1; 95 % of control
2. NC(=S)NCCO; 105 % of control
3. CC12CCc3occc3C1CCC13CC(CO)C(O)(CCC12)C3 (configuration not stated); 94 % of control

*Q* Report T/C for CC1CCC(O)C1O (configuration not stated) please.
*A* 94 % of control

*Q* Report T/C for COc1ccccc1N1C(N)=NC(N)=NC1(C)C please.
*A* 92 % of control

*Q* Report T/C for CC1=CP(=O)(O)CC1 please.
*A* 95 % of control

*Q* Report T/C for CCN(CC)CC(=O)NCC(CCN1CCOCC1)(CC(C)C)c1cccc2ccccc12 (configuration not stated) please.
*A* 96 % of control

* * *

Quick reference for T/C among some compounds
tested on: L1210 leukemia ip in BDF1 mice, survival T/C; assay: NCI In Vivo Anticancer Drug Screen. Data for tumor model L1210 Leukemia (intraperitoneal) in B6D2F1 (BDF1) mice; conditions: endpoint: mean survival time; dose: 25.0 mg/kg/injection; schedule: Q01DX009 (ip); vehicle: saline; higher = longer survival
Inconclusive results and toxic doses are left out.

// below: answered compounds
1. CCN(CC)CCOc1ccccc1C(=O)CCc1ccccc1; 93 % of control
2. NCCC(=O)OC1CCCc2c(O)c3c(c(O)c21)C(=O)c1ccccc1C3=O (stereo not drawn); 93 % of control
3. CC(=O)Oc1ccc(C[n+]2ccccc2)cc1; 86 % of control

*Q* Report T/C for CN(C)CCCN1c2ccccc2Sc2ccc(Cl)cc21 please.
*A* 105 % of control

*Q* Report T/C for FC(F)(F)c1ccc2c(c1)N(CCCNCCN1CCOCC1)c1ccccc1S2 please.
*A* 90 % of control

*Q* Report T/C for O=C(C(F)(F)F)C(F)(F)F please.
*A* 114 % of control

*Q* Report T/C for O=S(=O)(O)c1ccccc1O please.
*A* 101 % of control

*Q* Report T/C for CCNc1ncnc2c1c(C(N)=S)cn2C1OC(CO)C(O)C1O (stereo not drawn) please.
*A* 112 % of control

*Q* Report T/C for COC(=O)CC1(O)C=CC(=O)C=C1 please.
*A* 100 % of control

*Q* Report T/C for Nc1nncs1 please.
*A* 106 % of control

*Q* Report T/C for CCOc1ccc(Br)cc1/C=N\N=C\c1cc(Br)ccc1OCC please.
*A* 101 % of control

*Q* Report T/C for C[N+]1(C)CCC2=CC3C=CC2C1C=C3 (stereo not drawn) please.
*A* 93 % of control

*Q* Report T/C for c1ccc2c(C3CCCCN3)c[nH]c2c1 (stereo not drawn) please.
*A* 90 % of control

* * *

tested on: L1210 leukemia ip in BDF1 mice, survival T/C; experiment: NCI In Vivo Anticancer Drug Screen. Data for tumor model L1210 Leukemia (intraperitoneal) in B6D2F1 (BDF1) mice; details: endpoint: mean survival time; dose: 50.0 mg/kg/injection; schedule: Q01DX009 (ip); vehicle: saline with Tween-80; higher = longer survival
Toxic doses and inconclusive results are not listed.
property: T/C

1) O=C(NC(=S)NNC(=S)NNc1ccccc1)c1ccccc1; 115 % of control

*Q* Report T/C for O=S1(=O)C2CCC(C2)C1Cl (stereo not given) please.
*A* 101 % of control

*Q* Report T/C for COc1ccc(CC(=O)NCCc2ccc3c(c2)OCO3)cc1OC please.
*A* 89 % of control

*Q* Report T/C for CCOC(=O)C(CCSC(C)=O)SC(C)=O (stereo not given) please.
*A* 96 % of control

* * *

system: L1210 leukemia ip in BDF1 mice, survival T/C; experiment: NCI In Vivo Anticancer Drug Screen. Data for tumor model L1210 Leukemia (intraperitoneal) in B6D2F1 (BDF1) mice; conditions: endpoint: mean survival time; dose: 75.0 mg/kg/injection; schedule: Q01DX001 (ip); vehicle: saline; higher = longer survival
Inconclusive results and toxic doses are left out.
Quick reference for T/C among some molecules

// below: answered molecules
1) CC12CCC(Cl)(CC1O)C2(C)C (centres undefined); 102 % of control
2) CCOC(=O)N/N=C/c1cccc([N+](=O)[O-])c1; 104 % of control
3) CC(=O)Nc1cc(Cl)c(Nc2cc(S(=O)(=O)O)c(N)c3c2C(=O)c2ccccc2C3=O)c(Cl)c1; 96 % of control

Now look at this one.
*Q* Report T/C for O=C(CCl)NC1=C(Cl)C(=O)c2ccccc2C1=O please.
*A* 93 % of control

* * *

Quick reference for T/C among some compounds
tested on: L1210 leukemia ip in BDF1 mice, survival T/C; experiment: NCI In Vivo Anticancer Drug Screen. Data for tumor model L1210 Leukemia (intraperitoneal) in B6D2F1 (BDF1) mice; settings: endpoint: mean survival time; dose: 100.0 mg/kg/injection; schedule: Q04DX002 (ip); vehicle: saline with Tween-80; higher = longer survival
Toxic doses and inconclusive results are not listed.

// below: answered compounds
1) CC1=CC(C(=O)O)P(C)(=O)C1 (stereo not drawn); 92 % of control
2) Cc1ccnc2c([N+](=O)[O-])cccc12; 103 % of control

Now look at this one.
*Q* Record S=C(Nc1ccc(Cl)cc1)NC1CC2C=CC1C2 (stereo not drawn) : what is its T/C with L1210 leukemia ip in BDF1 mice, survival T/C?
*A* 101 % of control

* * *

Quick reference for T/C among some molecules
test system: L1210 leukemia ip in BDF1 mice, survival T/C; assay: NCI In Vivo Anticancer Drug Screen. Data for tumor model L1210 Leukemia (intraperitoneal) in B6D2F1 (BDF1) mice; conditions: endpoint: mean survival time; dose: 100.0 mg/kg/injection; schedule: Q04DX002 (ip); vehicle: saline; higher = longer survival
Toxic doses and inconclusive results are not listed.

// below: answered molecules
1) CCC(C)(O)C(=O)O (stereo unspecified); 114 % of control
2) CCC(NC(C)=O)C(=O)O (stereo unspecified); 101 % of control
3) CC1CNC(=O)C(=O)N1 (stereo unspecified); 98 % of control
4) COc1ccc(C(=O)NC(=S)Nc2cccc([N+](=O)[O-])c2)cc1; 88 % of control
5) CCCCC(N)P(=O)(O)O (stereo unspecified); 95 % of control

Now look at this one.
*Q* Report T/C for CNCCCNCC(Cc1ccccc1)c1ccccc1 (stereo unspecified) please.
*A* 86 % of control

Origin of values: PubChem BioAssay AID248
